Attribution: patent US10829490B2

# IC50 annotations
Molecular target: CDK2/CyclinA (Homo sapiens (Human))
Test: CDK2/CycA kinase assay, microfluidic kinase detection (Caliper, Nanosyn)
Settings: 12-point dose-response, ATP at Km (50 μM), enzyme 0.2 nM, incubation 3 hr; read-out: CDK2/Cyclin A
property_measured: IC50 (nM)

[[record]]
smi = "CO[C@H]1CC[C@@]2(CC1)CNC(=O)c1cc3cnc(Nc4ccc(N5CCN(C)CC5)cn4)nc3n12"
property_measured = "IC50"
relation = "="
value_reported = 5000

[[record]]
smi = "CN1CCN(c2ccc(Nc3ncc4cc5n(c4n3)C3(CCCCC3)Cn3ccnc3-5)nc2)CC1"
property_measured = "IC50"
relation = "="
value_reported = 59000

[[record]]
smi = "CN1CCN(c2ccc(Nc3ncc4c(n3)N3C(=NCC35CCCCC5)C(=O)N4)nc2)CC1"
property_measured = "IC50"
relation = ">"
value_reported = 100000

[[record]]
smi = "CN1CCN(c2ccc(Nc3ncc4cc5n(c4n3)C3(CCCCC3)C(=O)NC5)nc2)CC1"
property_measured = "IC50"
relation = "="
value_reported = 2000

[[record]]
smi = "CN1CCN(c2ccc(Nc3ncc4cc5n(c4n3)C3(CCOCC3)CNC5=O)nc2)CC1"
property_measured = "IC50"
relation = "="
value_reported = 14000

[[record]]
smi = "O=C1NCC2(CCCCC2)n2c1cc1cnc(N[C@H]3CC[C@@H](N4CCN(CC5CC5)CC4)CC3)nc12"
property_measured = "IC50"
relation = "="
value_reported = 2000

[[record]]
smi = "O=C1NCC2(CCCCC2)n2c1cc1cnc(N[C@H]3CC[C@H](N4CCN(CC5CC5)CC4)CC3)nc12"
property_measured = "IC50"
relation = "="
value_reported = 100

[[record]]
smi = "CN1CCN(c2ccc(Nc3ncc4cc5n(c4n3)C3(C=NC5)CCCCC3)nc2)CC1"
property_measured = "IC50"
relation = "="
value_reported = 100

